tested target: Protein-glutamine gamma-glutamyltransferase (Homo sapiens) (UniProt P21980)
Sequence (P21980 whole entry): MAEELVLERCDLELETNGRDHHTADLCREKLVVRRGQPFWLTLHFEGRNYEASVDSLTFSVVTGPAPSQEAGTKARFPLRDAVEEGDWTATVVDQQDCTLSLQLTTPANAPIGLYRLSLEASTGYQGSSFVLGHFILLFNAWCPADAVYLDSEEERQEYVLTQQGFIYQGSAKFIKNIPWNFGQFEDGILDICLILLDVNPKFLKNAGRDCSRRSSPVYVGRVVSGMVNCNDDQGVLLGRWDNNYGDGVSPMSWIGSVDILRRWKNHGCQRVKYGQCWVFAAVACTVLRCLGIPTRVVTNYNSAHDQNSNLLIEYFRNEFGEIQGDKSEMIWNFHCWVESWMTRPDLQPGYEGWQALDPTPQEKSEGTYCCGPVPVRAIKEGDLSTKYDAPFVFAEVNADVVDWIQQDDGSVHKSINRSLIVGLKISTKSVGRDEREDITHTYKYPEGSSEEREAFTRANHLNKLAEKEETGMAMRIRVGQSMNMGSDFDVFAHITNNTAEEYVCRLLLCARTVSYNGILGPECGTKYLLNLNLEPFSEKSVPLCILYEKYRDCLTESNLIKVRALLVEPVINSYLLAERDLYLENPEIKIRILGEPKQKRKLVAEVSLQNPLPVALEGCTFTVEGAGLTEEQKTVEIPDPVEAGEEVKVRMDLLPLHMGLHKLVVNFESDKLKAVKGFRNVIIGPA
experimental details: Inhibition of TG2 (unknown origin) using Cbz-Glu(gamma-p-nitrophenyl ester)Gly (AL5) as substrate and measured by colorimetric assay
Assign labels as follows, please: true for Kinact below 0.5 min⁻¹; false for Kinact equal to or exceeding 0.5 min⁻¹.

INSERT INTO results (smiles, label_value) VALUES
  ('C=CC(=O)NCCCC[C@H](NC(=O)c1ccc2ccccc2c1)C(=O)N1CCN(C(=O)c2cccc3ccccc23)CC1', 'true'),
  ('C=CC(=O)NCCCC[C@H](NC(=O)OCc1ccccc1)C(=O)N1CCN(S(=O)(=O)c2cccc3c(N(C)C)cccc23)CC1', 'true'),
  ('C=CC(=O)NCCCC[C@H](NC(=O)Cc1ccccc1OC)C(=O)N1CCN(C(=O)c2cccc3ccccc23)CC1', 'false'),
  ('C=CC(=O)NCCCC[C@H](NC(=O)Cc1cccc(Cl)c1)C(=O)N1CCN(C(=O)c2cccc3ccccc23)CC1', 'true'),
  ('C=CC(=O)NCCCC[C@H](NS(=O)(=O)c1ccccc1)C(=O)N1CCN(C(=O)c2cccc3ccccc23)CC1', 'false'),
  ('C=CC(=O)NCCCC[C@H](NC(=O)Cc1ccc(Cl)c(Cl)c1)C(=O)N1CCN(C(=O)c2cccc3ccccc23)CC1', 'true'),
  ('C=CC(=O)NCCCC[C@H](NC(=O)Cc1ccccc1Cl)C(=O)N1CCN(C(=O)c2cccc3ccccc23)CC1', 'false'),
  ('C=CC(=O)NCCCC[C@H](NC(=O)CCCc1ccccc1)C(=O)N1CCN(C(=O)c2cccc3ccccc23)CC1', 'true'),
  ('C=CC(=O)NCCCC[C@H](NC(=O)OCc1ccccc1)C(=O)N1CCN(C(=O)c2cccc3ccccc23)CC1', 'false');

Every entry's value here was drawn from ChEMBL document CHEMBL5154739.
